Numbers sourced from the supplement of paper PMC10307832.

Tested on: NCI-H322M
method-description: relative viability (nuclei count vs DMSO), 5 days (fraction); higher = more cells survive
particulars: first compound 0.0002 µM
Reported relative viability by item:
Answer with a number only.

1. CC(=O)O[C@@]12CO[C@@H]1C[C@H](O)[C@@]1(C)C(=O)[C@H](O)C3=C(C)[C@@H](OC(=O)[C@H](O)[C@@H](NC(=O)OC(C)(C)C)c4ccccc4)C[C@@](O)([C@@H](OC(=O)c4ccccc4)[C@H]21)C3(C)C [Docetaxel] + N=C(N)NC(=N)NCCc1ccccc1 [Phenformin] (partner 250 µM) | 0.807

Q: What measured relative viability goes with CC(=O)O[C@@]12CO[C@@H]1C[C@H](O)[C@@]1(C)C(=O)[C@H](O)C3=C(C)[C@@H](OC(=O)[C@H](O)[C@@H](NC(=O)OC(C)(C)C)c4ccccc4)C[C@@](O)([C@@H](OC(=O)c4ccccc4)[C@H]21)C3(C)C [Docetaxel] + Nc1nc2[nH]cc(CCc3ccc(C(=O)N[C@@H](CCC(=O)O)C(=O)O)cc3)c2c(=O)[nH]1 [Pemetrexed] (partner 0.2 µM) ?
A: 0.552

Q: What measured relative viability goes with CC(=O)O[C@@]12CO[C@@H]1C[C@H](O)[C@@]1(C)C(=O)[C@H](O)C3=C(C)[C@@H](OC(=O)[C@H](O)[C@@H](NC(=O)OC(C)(C)C)c4ccccc4)C[C@@](O)([C@@H](OC(=O)c4ccccc4)[C@H]21)C3(C)C [Docetaxel] + C[C@]1(O)C[C@@H](c2nc(-c3ccc4ccc(-c5ccccc5)nc4c3)c3c(N)nccn32)C1 [Linsitinib] (partner 1 µM) ?
A: 0.852

Q: What measured relative viability goes with CC(=O)O[C@@]12CO[C@@H]1C[C@H](O)[C@@]1(C)C(=O)[C@H](O)C3=C(C)[C@@H](OC(=O)[C@H](O)[C@@H](NC(=O)OC(C)(C)C)c4ccccc4)C[C@@](O)([C@@H](OC(=O)c4ccccc4)[C@H]21)C3(C)C [Docetaxel] + CCNC(=O)c1noc(-c2cc(C(C)C)c(O)cc2O)c1-c1ccc(CN2CCOCC2)cc1 [Luminespib] (partner 0.01 µM) ?
A: 0.836

----------
Tested on: NCI-H838
method-description: relative viability (nuclei count vs DMSO), 5 days (fraction); higher = more cells survive
particulars: first compound 2.53 µM
// boundary case: relative viability equal to 0.8 maps to criterion not met; strictly smaller maps to criterion met

1. Cc1cnc(-c2cnc(NCCNc3ccc(C#N)cn3)nc2-c2ccc(Cl)cc2Cl)[nH]1 + CC1(C)CCC(c2ccc(Cl)cc2)=C(CN2CCN(c3ccc(C(=O)NS(=O)(=O)c4ccc(N[C@H](CCN5CCOCC5)CSc5ccccc5)c(S(=O)(=O)C(F)(F)F)c4)cc3)CC2)C1 [Navitoclax] (partner 0.5 µM) | criterion not met
2. Cc1cnc(-c2cnc(NCCNc3ccc(C#N)cn3)nc2-c2ccc(Cl)cc2Cl)[nH]1 + COc1cccc2cc(-c3nc([C@H]4CC[C@H](C(=O)O)CC4)n4ncnc(N)c34)[nH]c12 [OSI-027] (partner 0.5 µM) | criterion not met

Q: API: query returns whether the molecule falls strictly under 0.8 in relative viability. Query: O=c1[nH]c2ccccc2n1C1CCN(CCCC(c2ccc(F)cc2)c2ccc(F)cc2)CC1 [Pimozide] + C[C@]1(O)C[C@@H](c2nc(-c3ccc4ccc(-c5ccccc5)nc4c3)c3c(N)nccn32)C1 [Linsitinib] (partner 1 µM)
A: criterion not met

Q: API: query returns whether the molecule falls strictly under 0.8 in relative viability. Query: O=c1[nH]c2ccccc2n1C1CCN(CCCC(c2ccc(F)cc2)c2ccc(F)cc2)CC1 [Pimozide] + C[C@@H](Oc1cc(-c2cnn(C3CCNCC3)c2)cnc1N)c1c(Cl)ccc(F)c1Cl [Crizotinib] (partner 1 µM)
A: criterion met

Q: API: query returns whether the molecule falls strictly under 0.8 in relative viability. Query: O=c1[nH]c2ccccc2n1C1CCN(CCCC(c2ccc(F)cc2)c2ccc(F)cc2)CC1 [Pimozide] + O=C(CCCCCCC(=O)Nc1ccccc1)NO [Vorinostat] (partner 1 µM)
A: criterion met
